compounds and their reported activity at 50 µM
Biological target: Human MTAP (Homo sapiens, UniProt Q13126)
Construct: six-histidine tag (His6) (N); made in house; host or cells: E. coli BL21 DE3
Sequence (Q13126 1-283): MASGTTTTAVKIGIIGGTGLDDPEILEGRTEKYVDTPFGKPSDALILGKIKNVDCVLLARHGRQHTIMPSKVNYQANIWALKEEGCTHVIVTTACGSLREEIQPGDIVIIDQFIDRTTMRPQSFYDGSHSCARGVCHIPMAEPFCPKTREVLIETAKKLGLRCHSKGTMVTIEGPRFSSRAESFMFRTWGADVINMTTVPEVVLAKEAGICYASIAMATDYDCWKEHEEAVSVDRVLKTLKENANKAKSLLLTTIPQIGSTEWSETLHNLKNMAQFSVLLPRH
Assay: MTAP substrate assay, coupled spectrophotometric (adenine, xanthine oxidase)
Assay type: biochemical
Conditions: 10 min; compound 50 uM, 2 nM MTAP, relative to MTA at 50 uM; read-out: MT-A—50: initial velocity as a percentage of the initial velocity with MTA as substrate
Unit % implied. Number only.

Nc1ncnc2c1ncn2[C@@H]1O[C@H](CSc2ccc(O)cc2)[C@@H](O)[C@H]1O | 51

**Q:** // lookup activity at 50 µM for Nc1ncnc2c1ncn2[C@@H]1O[C@H](CSCC(=O)Nc2ccccc2)[C@@H](O)[C@H]1O
**A:** 15

**Q:** // lookup activity at 50 µM for Nc1ncnc2c1ncn2[C@@H]1O[C@H](CSc2nc(-c3ccccc3)cs2)[C@@H](O)[C@H]1O
**A:** 12.5

**Q:** // lookup activity at 50 µM for Nc1ncnc2c1ncn2[C@@H]1O[C@H](CSc2cc(Cl)ccc2Cl)[C@@H](O)[C@H]1O
**A:** 6

**Q:** // lookup activity at 50 µM for Nc1ccccc1SC[C@H]1O[C@@H](n2cnc3c(N)ncnc32)[C@H](O)[C@@H]1O
**A:** 5

**Q:** // lookup activity at 50 µM for Nc1ncnc2c1ncn2[C@@H]1O[C@H](CSc2nc3ccccc3s2)[C@@H](O)[C@H]1O
**A:** 25

**Q:** // lookup activity at 50 µM for Nc1ncnc2c1ncn2[C@@H]1O[C@H](CSc2ncccn2)[C@@H](O)[C@H]1O
**A:** 59

**Q:** // lookup activity at 50 µM for Nc1ncnc2c1ncn2[C@@H]1O[C@H](CSc2ccc(C(F)(F)F)cc2[N+](=O)[O-])[C@@H](O)[C@H]1O
**A:** 4

**Q:** // lookup activity at 50 µM for CSc1nsc(SC[C@H]2O[C@@H](n3cnc4c(N)ncnc43)[C@H](O)[C@@H]2O)n1
**A:** 17
